details: in isopropanol, 283.15 K

compound-structure	solubility (mole fraction)
O=[N+]([O-])c1cc([N+](=O)[O-])c(Cl)c(Cl)c1Cl	0.00125

* * *

details: in n-butanol, 293.15 K

compound-structure	solubility (mole fraction)
O=[N+]([O-])c1cc([N+](=O)[O-])c(Cl)c(Cl)c1Cl	0.00428

* * *

details: in ethanol, 323.15 K

compound-structure	solubility (mole fraction)
O=[N+]([O-])c1cc([N+](=O)[O-])c(Cl)c(Cl)c1Cl	0.0182

* * *

details: in ethyl acetate, 313.15 K
measurement-label: solubility (mole fraction)

compound-structure	measurement-label	value-reported
O=[N+]([O-])c1cc([N+](=O)[O-])c(Cl)c(Cl)c1Cl	solubility (mole fraction)	0.245

* * *

details: in ethanol, 303.15 K
measurement-label: solubility (mole fraction)

compound-structure	measurement-label	value-reported
O=[N+]([O-])c1cc([N+](=O)[O-])c(Cl)c(Cl)c1Cl	solubility (mole fraction)	0.00765

* * *

details: in isopropanol, 318.15 K

compound-structure	solubility (mole fraction)
O=[N+]([O-])c1cc([N+](=O)[O-])c(Cl)c(Cl)c1Cl	0.0107

* * *

details: in acetone, 283.15 K

compound-structure	solubility (mole fraction)
O=[N+]([O-])c1cc([N+](=O)[O-])c(Cl)c(Cl)c1Cl	0.124

* * *

details: in DMSO, 318.15 K

compound-structure	solubility (mole fraction)
O=[N+]([O-])c1cc([N+](=O)[O-])c(Cl)c(Cl)c1Cl	0.378

* * *

details: in n-butanol, 278.15 K
measurement-label: solubility (mole fraction)

compound-structure	value-reported
O=[N+]([O-])c1cc([N+](=O)[O-])c(Cl)c(Cl)c1Cl	0.00175

* * *

details: in n-butanol, 303.15 K
measurement-label: solubility (mole fraction)

compound-structure	measurement-label	value-reported
O=[N+]([O-])c1cc([N+](=O)[O-])c(Cl)c(Cl)c1Cl	solubility (mole fraction)	0.00752

* * *

details: in DMF, 278.15 K

compound-structure	solubility (mole fraction)
O=[N+]([O-])c1cc([N+](=O)[O-])c(Cl)c(Cl)c1Cl	0.194

* * *

details: in isopropanol, 303.15 K

compound-structure	solubility (mole fraction)
O=[N+]([O-])c1cc([N+](=O)[O-])c(Cl)c(Cl)c1Cl	0.00451

* * *

details: in 1,2-dichloroethane, 318.15 K

compound-structure	solubility (mole fraction)
O=[N+]([O-])c1cc([N+](=O)[O-])c(Cl)c(Cl)c1Cl	0.258

* * *

details: in DMF, 288.15 K
measurement-label: solubility (mole fraction)

compound-structure	measurement-label	value-reported
O=[N+]([O-])c1cc([N+](=O)[O-])c(Cl)c(Cl)c1Cl	solubility (mole fraction)	0.23

* * *

details: in chloroform, 318.15 K
measurement-label: solubility (mole fraction)

compound-structure	value-reported
O=[N+]([O-])c1cc([N+](=O)[O-])c(Cl)c(Cl)c1Cl	0.237

* * *

details: in 1,2-dichloroethane, 293.15 K

compound-structure	solubility (mole fraction)
O=[N+]([O-])c1cc([N+](=O)[O-])c(Cl)c(Cl)c1Cl	0.108

* * *

details: in tetrachloromethane, 323.15 K
measurement-label: solubility (mole fraction)

compound-structure	value-reported
O=[N+]([O-])c1cc([N+](=O)[O-])c(Cl)c(Cl)c1Cl	0.12

* * *

details: in toluene, 293.15 K
measurement-label: solubility (mole fraction)

compound-structure	measurement-label	value-reported
O=[N+]([O-])c1cc([N+](=O)[O-])c(Cl)c(Cl)c1Cl	solubility (mole fraction)	0.204

* * *

details: in tetrachloromethane, 293.15 K

compound-structure	solubility (mole fraction)
O=[N+]([O-])c1cc([N+](=O)[O-])c(Cl)c(Cl)c1Cl	0.0134

* * *

details: in chloroform, 288.15 K
measurement-label: solubility (mole fraction)

compound-structure	measurement-label	value-reported
O=[N+]([O-])c1cc([N+](=O)[O-])c(Cl)c(Cl)c1Cl	solubility (mole fraction)	0.0807

* * *

details: in tetrachloromethane, 308.15 K

compound-structure	solubility (mole fraction)
O=[N+]([O-])c1cc([N+](=O)[O-])c(Cl)c(Cl)c1Cl	0.0425

* * *

details: in tetrachloromethane, 318.15 K

compound-structure	solubility (mole fraction)
O=[N+]([O-])c1cc([N+](=O)[O-])c(Cl)c(Cl)c1Cl	0.0864

* * *

details: in tetrachloromethane, 298.15 K

compound-structure	solubility (mole fraction)
O=[N+]([O-])c1cc([N+](=O)[O-])c(Cl)c(Cl)c1Cl	0.0201

* * *

details: in chloroform, 298.15 K

compound-structure	solubility (mole fraction)
O=[N+]([O-])c1cc([N+](=O)[O-])c(Cl)c(Cl)c1Cl	0.118

* * *

details: in dichloromethane, 278.15 K
measurement-label: solubility (mole fraction)

compound-structure	value-reported
O=[N+]([O-])c1cc([N+](=O)[O-])c(Cl)c(Cl)c1Cl	0.0689

* * *

details: in chloroform, 283.15 K

compound-structure	solubility (mole fraction)
O=[N+]([O-])c1cc([N+](=O)[O-])c(Cl)c(Cl)c1Cl	0.066

* * *

details: in DMSO, 303.15 K
measurement-label: solubility (mole fraction)

compound-structure	value-reported
O=[N+]([O-])c1cc([N+](=O)[O-])c(Cl)c(Cl)c1Cl	0.287

* * *

details: in acetone, 303.15 K
measurement-label: solubility (mole fraction)

compound-structure	measurement-label	value-reported
O=[N+]([O-])c1cc([N+](=O)[O-])c(Cl)c(Cl)c1Cl	solubility (mole fraction)	0.204

* * *

details: in methanol, 278.15 K

compound-structure	solubility (mole fraction)
O=[N+]([O-])c1cc([N+](=O)[O-])c(Cl)c(Cl)c1Cl	0.00262

* * *

details: in NMP, 303.15 K

compound-structure	solubility (mole fraction)
O=[N+]([O-])c1cc([N+](=O)[O-])c(Cl)c(Cl)c1Cl	0.357

* * *

details: in ethyl acetate, 303.15 K
measurement-label: solubility (mole fraction)

compound-structure	value-reported
O=[N+]([O-])c1cc([N+](=O)[O-])c(Cl)c(Cl)c1Cl	0.191

* * *

details: in isopropanol, 278.15 K

compound-structure	solubility (mole fraction)
O=[N+]([O-])c1cc([N+](=O)[O-])c(Cl)c(Cl)c1Cl	0.000879

* * *

details: in acetonitrile, 313.15 K
measurement-label: solubility (mole fraction)

compound-structure	value-reported
O=[N+]([O-])c1cc([N+](=O)[O-])c(Cl)c(Cl)c1Cl	0.183

* * *

details: in isopropanol, 293.15 K
measurement-label: solubility (mole fraction)

compound-structure	measurement-label	value-reported
O=[N+]([O-])c1cc([N+](=O)[O-])c(Cl)c(Cl)c1Cl	solubility (mole fraction)	0.00241

* * *

details: in chloroform, 293.15 K

compound-structure	solubility (mole fraction)
O=[N+]([O-])c1cc([N+](=O)[O-])c(Cl)c(Cl)c1Cl	0.0982

* * *

details: in acetonitrile, 303.15 K

compound-structure	solubility (mole fraction)
O=[N+]([O-])c1cc([N+](=O)[O-])c(Cl)c(Cl)c1Cl	0.123

* * *

details: in dichloromethane, 288.15 K

compound-structure	solubility (mole fraction)
O=[N+]([O-])c1cc([N+](=O)[O-])c(Cl)c(Cl)c1Cl	0.0975

* * *

details: in tetrachloromethane, 278.15 K
measurement-label: solubility (mole fraction)

compound-structure	value-reported
O=[N+]([O-])c1cc([N+](=O)[O-])c(Cl)c(Cl)c1Cl	0.00374

* * *

details: in DMF, 308.15 K
measurement-label: solubility (mole fraction)

compound-structure	value-reported
O=[N+]([O-])c1cc([N+](=O)[O-])c(Cl)c(Cl)c1Cl	0.324

* * *

details: in toluene, 298.15 K

compound-structure	solubility (mole fraction)
O=[N+]([O-])c1cc([N+](=O)[O-])c(Cl)c(Cl)c1Cl	0.23

* * *

details: in acetonitrile, 293.15 K

compound-structure	solubility (mole fraction)
O=[N+]([O-])c1cc([N+](=O)[O-])c(Cl)c(Cl)c1Cl	0.0806

* * *

details: in n-butanol, 318.15 K

compound-structure	solubility (mole fraction)
O=[N+]([O-])c1cc([N+](=O)[O-])c(Cl)c(Cl)c1Cl	0.0164

* * *

details: in 1,2-dichloroethane, 298.15 K

compound-structure	solubility (mole fraction)
O=[N+]([O-])c1cc([N+](=O)[O-])c(Cl)c(Cl)c1Cl	0.13

* * *

details: in toluene, 318.15 K
measurement-label: solubility (mole fraction)

compound-structure	value-reported
O=[N+]([O-])c1cc([N+](=O)[O-])c(Cl)c(Cl)c1Cl	0.36

* * *

details: in ethyl acetate, 288.15 K
measurement-label: solubility (mole fraction)

compound-structure	measurement-label	value-reported
O=[N+]([O-])c1cc([N+](=O)[O-])c(Cl)c(Cl)c1Cl	solubility (mole fraction)	0.128

meta.source: BigSolDB 2.1
